Cited source for all entries: PubChem BioAssay (NCI)

Each item that follows carries a reported TGI.
System: SNB-78 CNS
Assay Notes: NCI tumour cell line growth inhibition, 48 h
Property Measured: TGI

Compound | Observed Result
O=C(NCCO)c1ccc([N+](=O)[O-])cc1 | > 100 µM
O=C(/C=C/c1ccco1)c1ccc(NCc2nc3ccccc3[nH]2)cc1 | 58.4 µM
C#CC[N+](C)(CC#C)CC#C | > 100 µM
COC(=O)C1=C(c2ccc(OC)c(OC)c2)OC(c2cc(OC)c(OC)c(OC)c2)C1 (stereo not given) | 68.5 µM
CC(=O)NC1C(OCc2ccccc2)OC(CO)C(O)C1OC(C)C(=O)N[C@@H](C)C(=O)N[C@H](CCC(=O)OCCNc1c2ccccc2nc2cccc([N+](=O)[O-])c12)C(N)=O (stereo not given in full) | 0.0809 µM
Cc1c(CCO)c(=O)n2c([nH]c3ccccc32)c1C#N | > 100 µM
O=[N+]([O-])c1ccc(Cl)c(C2CC(c3cccc4ccccc34)=Nc3ccccc3S2)c1 (stereo not given) | > 66.7 µM
CCOc1ccc2c(c1)[n+]([O-])c(-c1ccc(Br)cc1)c(N)[n+]2[O-] | > 100 µM
CC1(C)O[C@@H](CCl)C[C@H](C#N)O1 | > 100 µM
CN(C)c1ccc(/C=C/c2ccc(/C=C/c3ccc(N(C)C)cc3)cc2)cc1 | > 100 µM
CCN(CC)c1ccc(N=Nc2ccc([N+](=O)[O-])cc2OC(=O)/C=C/c2ccccc2)c(OC(=O)/C=C/c2ccccc2)c1 | > 100 µM
ON(Cc1ccccc1)C(=S)c1ccccc1 | > 100 µM
CN(C)c1nnnn1-c1c(N)n(C)c(=O)n(C)c1=O | > 100 µM
S=c1nc(COc2ccc(Cl)cc2Cl)[nH][nH]1 | > 100 µM
O=C1C=CC(=C(c2ccc(O)cc2)c2ccc(O)cc2)C=C1 | 17.4 µM

* * *

Tested on: SNB-19 CNS
Assay Notes: NCI tumour cell line growth inhibition, 48 h

Compound | TGI
COc1ccc2c(c1)C/C(=C\c1cccc3ccccc13)C2=O | > 100 µM
COC12CCCN1c1ccn(Cc3ccccc3)c(=O)c1C2=O (centres undefined) | > 100 µM
Cc1ccc2c(=O)c(C(=O)Nn3c(C)csc3=S)c[nH]c2n1 | > 100 µM
COc1cc2cc(C(=O)N3CC(CCl)c4c3cc(NC(=O)OCc3ccc([N+](=O)[O-])cc3)c3ccccc43)[nH]c2c(OC)c1OC (centres undefined) | > 100 µM
Cn1nc(-c2ccc(Cl)cc2)nc2c(=O)n(C)c(=O)nc1-2 | 6.73 µM
O=C(NCCO)c1ccc([N+](=O)[O-])cc1 | > 100 µM
O=[N+]([O-])c1ccc(-c2noc(-c3ccc(Cl)cc3)c2C2=NCCN2)cc1 | > 100 µM
CC(C)CCCC(C)[C@H]1CC[C@H]2[C@@H]3CC[C@H]4C[C@@H](CCC=C(c5cc(Cl)c(O)c(C(=O)OC(C)C)c5)c5cc(Cl)c(O)c(C(=O)OC(C)C)c5)CC[C@]4(C)[C@H]3CC[C@]12C (some centres undefined) | > 50 µM
O=C(NC1CCCCC1)c1cc2ccccc2cc1O | > 100 µM

* * *

Test system: EKVX NSCLC
Assay Notes: NCI tumour cell line growth inhibition, 48 h
Label 1 when TGI >= 30 µM; otherwise 0.

Molecule | Label Value
NNc1nncc2[nH]cnc12 | 1
CCCCCCCC(CC(=O)NC(CO)C(=O)NC(CO)CC(C)C)OC(=O)CC(CCCCCCC)OC(=O)CC(CCCCCCC)OC1OC(C)C(O)C(OC2OC(C)C(O)C(O)C2OC(C)=O)C1O (configuration not stated) | 0
C(=Nc1ccc(-c2nc3ccccc3[nH]2)cc1)c1ccc[nH]1 | 1
CCOP(=O)(OCC)C(c1ccccc1)N(C(=O)NC(F)(F)F)c1cccc(F)c1 (configuration not stated) | 1
Clc1ccc(-c2nnc(-c3cccc4ccccc34)o2)cc1Cl | 1
CSc1cc(-c2ccccn2)nc(-c2ccccn2)c1 | 0
CC1(C)C(=O)c2ccccc2OC1N1CCN(C2Oc3ccccc3C(=O)C2(C)C)CC1 (configuration not stated) | 1
Cc1cc(S(=O)(=O)/N=C/N(C)C)c(SC(=O)c2ccc(Cl)cc2)cc1Cl | 1
CCCCCCCCCCCCCCCCNCCCN(C)CCCN | 1
Nc1cc(O)ccc1N=Nc1ccc(-c2nc3ccccc3[nH]2)cc1 | 1
CCCCC(C)C(OC(=O)CC(CC(=O)O)C(=O)O)C(CC(C)CC(O)CCCCC(O)CC(O)C(C)N)OC(=O)CC(CC(=O)O)C(=O)O (configuration not stated) | 1
O=C(O)c1cn(C2CC2)c2cc(N3CCN(C(=O)Nc4nc(-c5ccccc5)cs4)CC3)c(F)cc2c1=O | 1
CCCCCCNC(=O)Oc1ccc(/C(=C(/C)Cc2ccc(OC)cc2)c2ccc(OCCCN(C)C)cc2)cc1 | 0
CCCC(C)n1c(C)nc2c1C(=O)c1ccccc1C2=O (configuration not stated) | 1
COc1ccc(C(c2ccc(OCCN(C)C)cc2)c2cc3ccccc3c3ccccc23)cc1 (configuration not stated) | 0
CS(=O)(=O)NNS(=O)(=O)c1ccccc1 | 1
O=C1NC(=O)C(=Nc2cccc3c(=O)[nH][nH]c(=O)c23)C(c2nc3ccccc3s2)C1=O (configuration not stated) | 1
CCOC(=O)c1c(C)n(Cc2ccccc2)c2c1cc(O)c1[nH]c(Cc3ccccc3)nc12 | 1
Clc1ccc(-c2csc(Nc3cccc(-c4csc(-c5ccccc5)n4)c3)n2)cc1 | 0
COC(=O)C1OC2(CCCC3CC32)O[C@H]1C(=O)OC (some centres not stated) | 1
COC12CCCN1c1ccn(Cc3ccccc3)c(=O)c1C2=O (configuration not stated) | 1
O=[N+]([O-])c1ccc(-c2noc(-c3ccc(Cl)cc3)c2C2=NCCN2)cc1 | 1
Oc1ccc(-c2nc3ccc4[nH]ncc4c3c3c2CCCC3)c(F)c1 | 0
COC(=O)CCc1ccc2c(c1)C(=O)CC2 | 1
O=C(O)C1CCCCC1c1c2ccc(=O)c(O)c-2oc2c(O)c(O)ccc12 (configuration not stated) | 1
CC(=O)OC(Cc1ccc2ccccc2n1)(C(F)(F)F)C(F)(F)F | 0
Oc1ccc(Cl)cc1-c1cc(-c2ccccc2)nc(NCN2CCCCC2)n1 | 1
